Hey, just so you know, these numbers are from paper PMC5700166.

targetDesc: GST-Ap-NF-kB RHD (Exaiptasia pallida (Aiptasia), UniProt A0A913YAJ5 2-422)
Sequence: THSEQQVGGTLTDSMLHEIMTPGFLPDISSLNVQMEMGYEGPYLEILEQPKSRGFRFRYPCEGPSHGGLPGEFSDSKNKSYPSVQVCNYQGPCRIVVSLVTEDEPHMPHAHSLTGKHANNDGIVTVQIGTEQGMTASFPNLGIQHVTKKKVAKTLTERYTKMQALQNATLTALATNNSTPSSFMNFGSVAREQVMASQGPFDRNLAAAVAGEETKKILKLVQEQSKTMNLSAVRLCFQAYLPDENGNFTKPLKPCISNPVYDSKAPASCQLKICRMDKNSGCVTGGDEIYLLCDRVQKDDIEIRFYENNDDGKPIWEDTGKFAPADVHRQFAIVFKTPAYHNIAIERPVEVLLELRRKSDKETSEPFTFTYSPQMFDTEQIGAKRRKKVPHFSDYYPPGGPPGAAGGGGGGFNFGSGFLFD
assaySummary: protein-binding microarray (PBM); PBM: ~300 nM protein, 6 mM HEPES pH 7.8, 80 mM KCl, 0.5 mM EDTA, 0.5 mM EGTA, 6% glycerol, 35 ng/ul poly-dIdC, 1% milk, 1 h, room temperature; high values mean tight binding
measurementConditions: dsDNA, one strand shown
For each entry below, report its binding signal value.
Only the number, expressed in z-score, is required.

Kindly indicate its recorded binding signal. Item: CCGATTAACATCAGGAGAATCCCTGATGTTAATCGGGTCTTGATTCGCTTGACGCTGCTG 2.6

Kindly indicate its recorded binding signal. Item: CCGATTAACATCAAGGGGTCCCCTGATGTTAATCGGGTCTTGATTCGCTTGACGCTGCTG 5.55

Kindly indicate its recorded binding signal. Item: CCGATTAACATCACCCGGGAAAATGATGTTAATCGGGTCTTGATTCGCTTGACGCTGCTG 2.61

Kindly indicate its recorded binding signal. Item: CCGATTAACATCAGGGGGAAAAATGATGTTAATCGGGTCTTGATTCGCTTGACGCTGCTG 6.66

Kindly indicate its recorded binding signal. Item: CCGATTAACATCAATAAATTCCCTGATGTTAATCGGGTCTTGATTCGCTTGACGCTGCTG 4.18

---

targetDesc: GST-Ap-NF-kB RHD (Exaiptasia pallida (Aiptasia), UniProt A0A913YAJ5 2-422)
Sequence: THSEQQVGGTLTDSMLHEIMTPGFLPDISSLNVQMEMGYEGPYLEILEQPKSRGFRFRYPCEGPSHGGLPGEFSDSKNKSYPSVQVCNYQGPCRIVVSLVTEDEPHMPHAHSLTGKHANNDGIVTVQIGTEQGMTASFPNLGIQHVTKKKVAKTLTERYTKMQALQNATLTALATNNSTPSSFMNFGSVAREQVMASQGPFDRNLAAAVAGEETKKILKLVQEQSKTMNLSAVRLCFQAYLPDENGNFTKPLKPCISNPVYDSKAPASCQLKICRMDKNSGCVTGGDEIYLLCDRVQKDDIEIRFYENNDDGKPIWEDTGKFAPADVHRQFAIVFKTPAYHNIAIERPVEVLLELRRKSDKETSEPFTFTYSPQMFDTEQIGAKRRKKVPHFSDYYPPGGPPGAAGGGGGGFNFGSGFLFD
assaySummary: protein-binding microarray (PBM); PBM: ~300 nM protein, 6 mM HEPES pH 7.8, 80 mM KCl, 0.5 mM EDTA, 0.5 mM EGTA, 6% glycerol, 35 ng/ul poly-dIdC, 1% milk, 1 h, room temperature; Ap Aiptasia and Nv Nematostella (sea anemones) / Co Capsaspora / Aq Amphimedon (sponge) / Dm Drosophila / Hu human; RHD is the Rel homology domain; high values mean tight binding
measurementConditions: dsDNA, one strand shown
assayMetric: binding signal (z-score)
Only the number, expressed in z-score, is required.

Kindly indicate its recorded binding signal. Item: CCGATTAACATCAGGACATCCCCTGATGTTAATCGGGTCTTGATTCGCTTGACGCTGCTG 6.25

Kindly indicate its recorded binding signal. Item: CCGATTAACATCAGGGGATTCACTGATGTTAATCGGGTCTTGATTCGCTTGACGCTGCTG 7.47

Kindly indicate its recorded binding signal. Item: CCGATTAACATCACGTTTTCCCCTGATGTTAATCGGGTCTTGATTCGCTTGACGCTGCTG 7.13

Kindly indicate its recorded binding signal. Item: CCGATTAACATCACCAATTTCCCTGATGTTAATCGGGTCTTGATTCGCTTGACGCTGCTG 3.3

Kindly indicate its recorded binding signal. Item: CCGATTAACATCAGGGGATTAAATGATGTTAATCGGGTCTTGATTCGCTTGACGCTGCTG 4.91

Kindly indicate its recorded binding signal. Item: CCGATTAACATCAGGGGGATACATGATGTTAATCGGGTCTTGATTCGCTTGACGCTGCTG 5.54

Kindly indicate its recorded binding signal. Item: CCGATTAACATCAAGGTGTTCCCTGATGTTAATCGGGTCTTGATTCGCTTGACGCTGCTG 1.65

Kindly indicate its recorded binding signal. Item: CCGATTAACATCAGGGAAGTCCATGATGTTAATCGGGTCTTGATTCGCTTGACGCTGCTG 2.24

Kindly indicate its recorded binding signal. Item: CCGATTAACATCAAGATTTCCCATGATGTTAATCGGGTCTTGATTCGCTTGACGCTGCTG 2.43

Kindly indicate its recorded binding signal. Item: CCGATTAACATCAGGGAAATCCCTGATGTTAATCGGGTCTTGATTCGCTTGACGCTGCTG 9.75

Kindly indicate its recorded binding signal. Item: CCGATTAACATCACGGTAATTCCTGATGTTAATCGGGTCTTGATTCGCTTGACGCTGCTG 1.42

Kindly indicate its recorded binding signal. Item: CCGATTAACATCAAATTCTCCCCTGATGTTAATCGGGTCTTGATTCGCTTGACGCTGCTG 5.65

Kindly indicate its recorded binding signal. Item: CCGATTAACATCAGGCAGTTCCCTGATGTTAATCGGGTCTTGATTCGCTTGACGCTGCTG 1.39

Kindly indicate its recorded binding signal. Item: CCGATTAACATCAAGTCCCCCAATGATGTTAATCGGGTCTTGATTCGCTTGACGCTGCTG 4.26

Kindly indicate its recorded binding signal. Item: CCGATTAACATCAAGGGAAGCCCTGATGTTAATCGGGTCTTGATTCGCTTGACGCTGCTG 2.12

Kindly indicate its recorded binding signal. Item: CCGATTAACATCAATTTATCCCCTGATGTTAATCGGGTCTTGATTCGCTTGACGCTGCTG 5.26

Kindly indicate its recorded binding signal. Item: CCGATTAACATCAGAAAAGCCCCTGATGTTAATCGGGTCTTGATTCGCTTGACGCTGCTG 7.38

Kindly indicate its recorded binding signal. Item: CCGATTAACATCAGGGGTACACATGATGTTAATCGGGTCTTGATTCGCTTGACGCTGCTG 1.77

Kindly indicate its recorded binding signal. Item: CCGATTAACATCAAAAATTCACCTGATGTTAATCGGGTCTTGATTCGCTTGACGCTGCTG 1.56

Kindly indicate its recorded binding signal. Item: CCGATTAACATCAAAAATCCCCGTGATGTTAATCGGGTCTTGATTCGCTTGACGCTGCTG 9.77

Kindly indicate its recorded binding signal. Item: CCGATTAACATCAGGGGGCACCCTGATGTTAATCGGGTCTTGATTCGCTTGACGCTGCTG 5.39

Kindly indicate its recorded binding signal. Item: CCGATTAACATCAAATCCCCCCTTGATGTTAATCGGGTCTTGATTCGCTTGACGCTGCTG 8.14

Kindly indicate its recorded binding signal. Item: CCGATTAACATCAAATCCCCCCCTGATGTTAATCGGGTCTTGATTCGCTTGACGCTGCTG 8.93

Kindly indicate its recorded binding signal. Item: CCGATTAACATCACAGAAATCCCTGATGTTAATCGGGTCTTGATTCGCTTGACGCTGCTG 4.33

Kindly indicate its recorded binding signal. Item: CCGATTAACATCAGGGGATATACTGATGTTAATCGGGTCTTGATTCGCTTGACGCTGCTG 5.2

Kindly indicate its recorded binding signal. Item: CCGATTAACATCAAATTCCCATGTGATGTTAATCGGGTCTTGATTCGCTTGACGCTGCTG 2.41

Kindly indicate its recorded binding signal. Item: CCGATTAACATCAACGGGTCCCTTGATGTTAATCGGGTCTTGATTCGCTTGACGCTGCTG 2.6

Kindly indicate its recorded binding signal. Item: CCGATTAACATCACCCTCGAGGGTGATGTTAATCGGGTCTTGATTCGCTTGACGCTGCTG 1.01

Kindly indicate its recorded binding signal. Item: CCGATTAACATCAAGGGGTTTCCTGATGTTAATCGGGTCTTGATTCGCTTGACGCTGCTG 6.93

Kindly indicate its recorded binding signal. Item: CCGATTAACATCAGGGAATCCTATGATGTTAATCGGGTCTTGATTCGCTTGACGCTGCTG 3.36

Kindly indicate its recorded binding signal. Item: CCGATTAACATCAGGGGGGCGCATGATGTTAATCGGGTCTTGATTCGCTTGACGCTGCTG 3.86

Kindly indicate its recorded binding signal. Item: CCGATTAACATCAGGGGGTGCACTGATGTTAATCGGGTCTTGATTCGCTTGACGCTGCTG 3.65

Kindly indicate its recorded binding signal. Item: CCGATTAACATCAGGTAATTCCATGATGTTAATCGGGTCTTGATTCGCTTGACGCTGCTG 1.26

Kindly indicate its recorded binding signal. Item: CCGATTAACATCAAAGTCCCCCTTGATGTTAATCGGGTCTTGATTCGCTTGACGCTGCTG 7

Kindly indicate its recorded binding signal. Item: CCGATTAACATCAACACTCCCCCTGATGTTAATCGGGTCTTGATTCGCTTGACGCTGCTG 5.32

Kindly indicate its recorded binding signal. Item: CCGATTAACATCAAAACAGCCCCTGATGTTAATCGGGTCTTGATTCGCTTGACGCTGCTG 3.58
